test: NCI Yeast Anticancer Drug Screen. Data for the mlh1 rad18 strain (AID 175); conditions: S. cerevisiae mlh1 rad18 strain growth inhibition; at 50.0 µM; stronger effect = higher value
The panel holds about 79,000 compounds, 15% with a hit somewhere; the sample as a whole holds those more often.
Reported growth inhibition values for the following molecules.

MOLECULE	growth inhibition [%]
CCCCCCCCCCCC(=O)CCCCCCCCCCC	-2.7
O=C(Oc1c(Cl)c(Cl)c(Cl)c(Cl)c1Cl)Oc1c(Cl)c(Cl)c(Cl)c(Cl)c1Cl	3.4
Cn1cc(/C=C/C(=O)c2ccccc2[N+](=O)[O-])c2ccccc21	2.85
O=S(=O)(c1ccccc1)N1CCC1c1ccccc1 (configuration not stated)	0.8
C(#Cc1ccccc1)/C=C/C(=C\c1ccccc1)c1ccccc1	33.5
CC(O)CC(C)(C)O (configuration not stated)	4.2
N#CC(C#N)=CNc1ccccc1	4.6
